OBSERVATION TYPE: melting point

1. COc1ccc(C(=O)Cc2cc[n+]([O-])cc2)c2cc(C(F)(F)F)nn12: 157 to 161 °C (dec.)
2. COc1ccc(C(=O)Cc2ccncc2)c2cc(C(F)F)nn12: 186 to 191 °C (dec.)
3. CNc1ccc(C(=O)Cc2c(Cl)cncc2Cl)c2cc(C3CC3)nn12: 196 to 200 °C
4. COc1ccc(C(=O)Cc2ccncc2Cl)c2cc(C(F)(F)F)nn12: 188 to 191 °C
5. CN(C)c1ccc(C(=O)Cc2c(Cl)cncc2Cl)c2cc(C(F)(F)F)nn12: 234 to 238 °C
6. COc1ccc(CCc2c(Cl)cncc2Cl)c2cc(C(F)F)nn12: 153 to 156 °C
7. COc1ccc(CCc2c(Cl)cncc2Cl)c2cc(C(F)(F)F)nn12: 158 to 160 °C (dec.)

Every entry's value here was drawn from patent US20090318385A1.
